Target Under Test: T1, human IL-23 (human, UniProt Q9NPF7 20-189; P29460 23-328)
T1 construct: also called hIL-23; human recombinant IL-23
T1 sequence (looked up) 1: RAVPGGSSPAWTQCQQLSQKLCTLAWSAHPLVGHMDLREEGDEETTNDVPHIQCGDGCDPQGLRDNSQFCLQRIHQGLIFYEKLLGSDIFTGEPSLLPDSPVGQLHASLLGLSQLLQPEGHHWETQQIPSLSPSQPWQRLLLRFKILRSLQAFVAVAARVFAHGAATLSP
T1 sequence (looked up) 2: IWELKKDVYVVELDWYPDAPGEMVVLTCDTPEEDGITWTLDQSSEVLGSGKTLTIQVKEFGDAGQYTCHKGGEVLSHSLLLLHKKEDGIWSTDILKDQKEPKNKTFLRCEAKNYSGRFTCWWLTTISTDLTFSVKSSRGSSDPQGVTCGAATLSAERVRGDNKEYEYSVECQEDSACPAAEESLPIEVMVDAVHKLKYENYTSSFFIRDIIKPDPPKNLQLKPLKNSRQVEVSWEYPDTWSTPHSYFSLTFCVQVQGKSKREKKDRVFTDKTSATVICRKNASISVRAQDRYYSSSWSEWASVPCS
Measurement Description: SPR, Adnectin captured by anti-His mAb, IL-23 injected
Quantity Kind: koff (s⁻¹)

>  <Binder>
1487G03 (designed binder, captured by anti-His mAb) MGVSDVPRDLEVVAATPTSLLISWGHYPLHVRYYRITYGETGGNSPVQEFTVPAHRYTATISGLKPGVDYTITVYAVTYYNEADYSQIPISINYRTEIDKPSQHHHHHH

>  <Unit>
s⁻¹

>  <koff>
0.000316

$$$$
>  <Binder>
1490G02 (designed binder, captured by anti-His mAb) MGVSDVPRDLEVVAATPTSLLISWGHYPMHVRYYRITYGETGGNSPVQEFTVPPRYHTATISGLKPGVDYTITVYAVTYYMEEKYAVIPISINYRTEIDKPSQHHHHHH

>  <Unit>
s⁻¹

>  <koff>
0.000332

$$$$

[P] 1550 E06 (designed binder, captured by anti-His mAb) MGVSDVPRDLEVVAATPTSLLISWGHYPMHVRYYRITYGETGGNSPVQEFTVPPPRHTATISGLKPGVDYTITVYAVTYYAQENYKEIPISINYRTEIDKPSQHHHHHH
[Q] 1486G03 (designed binder, captured by anti-His mAb) MGVSDVPRDLEVVAATPTSLLISWGHYPMHVRYYRITYGETGGNSPVQEFTVPSRYYTATISGLKPGVDYTITVYAVTYYNEADYSQIPISINYRTEIDKPSQHHHHHH
Ask: For the pair P and Q , which member has the lower koff number? Provide the label of your selected option as the answer.
Reply: P
